System: Candida albicans
TEST NAME: In vitro Fungicidal activity (MFC) against Candida albicans (MY 1055).
Format: functional
Numbered stars: 1 amine (or outer) side, 2 acyl side, 3 side chain; on linkers, the order of the positions; unused ones are H or OH. Bridge positions count the residues as written; N and C are the ends. Square brackets hold non-standard residues; d marks the D form. Peptide text beside a SMILES is read from it. * marks the point of attachment. Orn(4R-OH) = O=C([C@H](C[C@@H](O)CN[*:3])N[*:1])[*:2]; hTyr(3R-OH) = N[C@H](C(=O)O)[C@H](O)Cc1ccc(O)cc1; X14 = NNC(=O)C[C@@H](O)[C@H](N[*:1])C(=O)[*:2]; Pro(3S-OH) = O=C(O)[C@H]1NCC[C@@H]1O; Hyp = O=C(O)[C@@H]1C[C@@H](O)CN1; X1 = CCC(C)CC(C)CCCCCCCCC(=O)*
REPORTED ENDPOINT: MFC (µg/mL)

- MOLECULE: "CCC(C)CC(C)CCCCCCCCC(=O)N[C@H]1C[C@@H](O)CNC(=O)[C@@H]2[C@@H](O)CCN2C(=O)[C@H]([C@H](O)CC(=O)NN)NC(=O)[C@H]([C@H](O)Cc2ccc(O)cc2)NC(=O)[C@@H]2C[C@@H](O)CN2C(=O)[C@H]([C@@H](C)O)NC1=O (stereo partly drawn) (X1-[Orn(4R-OH)]T[Hyp][hTyr(3R-OH)][X14][Pro(3S-OH)]; lactam 1-C)"
  REPORTED ENDPOINT: "MFC"
  NUMERIC RESULT: 4

====

Test system: Candida albicans
TEST NAME: In vitro Fungicidal activity (MFC) against Candida albicans (MY 1055).
Type: functional
Numbered stars: 1 amine (or outer) side, 2 acyl side, 3 side chain; on linkers, the order of the positions; unused ones are H or OH. Bridge positions count the residues as written; N and C are the ends. Square brackets hold non-standard residues; d marks the D form. Peptide text beside a SMILES is read from it. * marks the point of attachment. Orn(4R-OH,5R-OH) = O=C([C@H](C[C@@H](O)[C@@H](O)N[*:3])N[*:1])[*:2]; hTyr(3S-OH,4S-OH) = N[C@H](C(=O)O)[C@H](O)[C@@H](O)c1ccc(O)cc1; Orn(4R-OH) = O=C([C@H](C[C@@H](O)CN[*:3])N[*:1])[*:2]; X15 = NCCCCCCNC(=O)C[C@@H](O)[C@H](N[*:1])C(=O)[*:2]; hTyr(3R-OH) = N[C@H](C(=O)O)[C@H](O)Cc1ccc(O)cc1; X12 = CC(=O)NCC[C@@H](O)[C@H](N[*:1])C(=O)[*:2]; X3 = O=C(C[C@@H](O)[C@H](N[*:1])C(=O)[*:2])NO; Pro(3S-OH) = O=C(O)[C@H]1NCC[C@@H]1O; Hyp = O=C(O)[C@@H]1C[C@@H](O)CN1; X1 = CCC(C)CC(C)CCCCCCCCC(=O)*

- COMPOUND: "CCC(C)CC(C)CCCCCCCCC(=O)N[C@H]1C[C@@H](O)[C@@H](O)NC(=O)[C@@H]2[C@@H](O)CCN2C(=O)[C@H]([C@H](O)CCNC(C)=O)NC(=O)[C@H]([C@H](O)[C@@H](O)c2ccc(O)cc2)NC(=O)[C@@H]2C[C@@H](O)CN2C(=O)[C@H]([C@@H](C)O)NC1=O (stereo partly drawn) (X1-[Orn(4R-OH,5R-OH)]T[Hyp][hTyr(3S-OH,4S-OH)][X12][Pro(3S-OH)]; lactam 1-C)"
  MFC, µg/mL: 4
- COMPOUND: "CCC(C)CC(C)CCCCCCCCC(=O)N[C@H]1C[C@@H](O)CNC(=O)[C@@H]2[C@@H](O)CCN2C(=O)[C@H]([C@H](O)CC(=O)NO)NC(=O)[C@H]([C@H](O)Cc2ccc(O)cc2)NC(=O)[C@@H]2C[C@@H](O)CN2C(=O)[C@H]([C@@H](C)O)NC1=O (stereo partly drawn) (X1-[Orn(4R-OH)]T[Hyp][hTyr(3R-OH)][X3][Pro(3S-OH)]; lactam 1-C)"
  MFC, µg/mL: 0.25
- COMPOUND: "CCC(C)CC(C)CCCCCCCCC(=O)N[C@H]1C[C@@H](O)CNC(=O)[C@@H]2[C@@H](O)CCN2C(=O)[C@H]([C@H](O)CC(=O)NCCCCCCN)NC(=O)[C@H]([C@H](O)Cc2ccc(O)cc2)NC(=O)[C@@H]2C[C@@H](O)CN2C(=O)[C@H]([C@@H](C)O)NC1=O (stereo partly drawn) (X1-[Orn(4R-OH)]T[Hyp][hTyr(3R-OH)][X15][Pro(3S-OH)]; lactam 1-C)"
  MFC, µg/mL: 0.5

====

Beta-1,3-glucan synthase (Candida albicans): reported IC50 for various compounds.
Sequence (O13428 whole entry): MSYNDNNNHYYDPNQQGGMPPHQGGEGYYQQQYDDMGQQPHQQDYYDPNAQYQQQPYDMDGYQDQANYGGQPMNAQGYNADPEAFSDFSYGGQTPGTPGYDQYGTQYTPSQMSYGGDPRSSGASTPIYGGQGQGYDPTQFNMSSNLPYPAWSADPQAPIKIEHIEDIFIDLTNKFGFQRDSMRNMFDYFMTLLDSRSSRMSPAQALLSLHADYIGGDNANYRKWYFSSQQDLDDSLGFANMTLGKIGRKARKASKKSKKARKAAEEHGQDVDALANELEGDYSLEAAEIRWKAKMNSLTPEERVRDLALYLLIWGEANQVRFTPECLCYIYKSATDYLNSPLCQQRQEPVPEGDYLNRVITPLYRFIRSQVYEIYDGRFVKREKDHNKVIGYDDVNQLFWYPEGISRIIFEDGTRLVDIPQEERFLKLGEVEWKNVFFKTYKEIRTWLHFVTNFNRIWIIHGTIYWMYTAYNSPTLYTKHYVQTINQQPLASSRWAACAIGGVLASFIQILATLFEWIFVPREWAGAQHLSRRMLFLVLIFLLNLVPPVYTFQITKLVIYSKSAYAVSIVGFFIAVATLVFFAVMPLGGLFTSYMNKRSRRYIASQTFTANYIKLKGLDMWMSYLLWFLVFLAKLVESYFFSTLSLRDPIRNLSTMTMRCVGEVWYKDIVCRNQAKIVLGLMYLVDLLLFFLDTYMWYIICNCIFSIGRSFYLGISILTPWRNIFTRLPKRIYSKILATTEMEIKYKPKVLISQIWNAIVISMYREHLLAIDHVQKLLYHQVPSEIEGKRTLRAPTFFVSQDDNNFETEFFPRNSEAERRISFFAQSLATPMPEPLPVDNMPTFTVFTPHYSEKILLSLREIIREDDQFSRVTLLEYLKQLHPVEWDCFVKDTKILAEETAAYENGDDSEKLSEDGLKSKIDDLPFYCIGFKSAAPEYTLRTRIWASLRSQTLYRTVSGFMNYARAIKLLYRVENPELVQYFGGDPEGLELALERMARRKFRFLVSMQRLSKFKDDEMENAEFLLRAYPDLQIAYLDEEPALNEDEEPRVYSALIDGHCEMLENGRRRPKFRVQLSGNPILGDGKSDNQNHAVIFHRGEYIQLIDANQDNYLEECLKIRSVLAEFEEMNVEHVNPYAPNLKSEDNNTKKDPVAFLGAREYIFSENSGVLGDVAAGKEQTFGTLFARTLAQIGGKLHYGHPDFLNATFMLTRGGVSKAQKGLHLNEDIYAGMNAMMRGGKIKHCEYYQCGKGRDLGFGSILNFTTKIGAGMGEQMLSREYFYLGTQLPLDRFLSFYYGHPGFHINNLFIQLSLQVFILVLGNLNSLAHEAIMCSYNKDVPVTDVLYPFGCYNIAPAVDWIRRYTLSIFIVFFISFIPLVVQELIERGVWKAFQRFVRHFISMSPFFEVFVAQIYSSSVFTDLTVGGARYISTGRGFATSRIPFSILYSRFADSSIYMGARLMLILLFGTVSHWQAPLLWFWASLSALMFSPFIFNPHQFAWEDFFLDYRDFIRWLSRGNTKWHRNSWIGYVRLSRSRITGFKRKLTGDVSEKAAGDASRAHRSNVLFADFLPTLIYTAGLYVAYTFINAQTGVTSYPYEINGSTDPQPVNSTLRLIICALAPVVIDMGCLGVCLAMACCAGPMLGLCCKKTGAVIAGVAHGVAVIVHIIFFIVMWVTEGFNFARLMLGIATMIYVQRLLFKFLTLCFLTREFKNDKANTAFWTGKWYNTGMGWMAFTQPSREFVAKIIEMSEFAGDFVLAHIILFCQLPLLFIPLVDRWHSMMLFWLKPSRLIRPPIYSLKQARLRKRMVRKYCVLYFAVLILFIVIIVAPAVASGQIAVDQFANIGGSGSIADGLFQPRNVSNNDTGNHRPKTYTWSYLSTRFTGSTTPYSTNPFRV
Numbered stars: 1 amine (or outer) side, 2 acyl side, 3 side chain; on linkers, the order of the positions; unused ones are H or OH. Bridge positions count the residues as written; N and C are the ends. Square brackets hold non-standard residues; d marks the D form. Peptide text beside a SMILES is read from it. * marks the point of attachment. Orn(4R-OH,5R-OH) = O=C([C@H](C[C@@H](O)[C@@H](O)N[*:3])N[*:1])[*:2]; hTyr(3S-OH,4S-OH) = N[C@H](C(=O)O)[C@H](O)[C@@H](O)c1ccc(O)cc1; Orn(4R-OH) = O=C([C@H](C[C@@H](O)CN[*:3])N[*:1])[*:2]; X6 = C[N+](C)(C)CC[C@@H](O)[C@H](N[*:1])C(=O)[*:2]; hTyr(3R-OH) = N[C@H](C(=O)O)[C@H](O)Cc1ccc(O)cc1; X2 = O=C(O)C[C@@H](O)[C@H](N[*:1])C(=O)[*:2]; X17 = O=C([C@@H](N[*:1])[C@H](O)CCO)[*:2]; Orn(3R-OH) = NCC[C@@H](O)[C@H](N)C(=O)O; Pro(3S-OH) = O=C(O)[C@H]1NCC[C@@H]1O; Hyp = O=C(O)[C@@H]1C[C@@H](O)CN1; X1 = CCC(C)CC(C)CCCCCCCCC(=O)*

- COMPOUND: "CCC(C)CC(C)CCCCCCCCC(=O)N[C@H]1C[C@@H](O)CNC(=O)[C@@H]2[C@@H](O)CCN2C(=O)[C@H]([C@H](O)CCO)NC(=O)[C@H]([C@H](O)Cc2ccc(O)cc2)NC(=O)[C@@H]2C[C@@H](O)CN2C(=O)[C@H]([C@@H](C)O)NC1=O (stereo partly drawn) (X1-[Orn(4R-OH)]T[Hyp][hTyr(3R-OH)][X17][Pro(3S-OH)]; lactam 1-C)"
  IC50 (µM): 0.2
- COMPOUND: "CCC(C)CC(C)CCCCCCCCC(=O)N[C@H]1C[C@@H](O)CNC(=O)[C@@H]2[C@@H](O)CCN2C(=O)[C@H]([C@H](O)CC(=O)O)NC(=O)[C@H]([C@H](O)Cc2ccc(O)cc2)NC(=O)[C@@H]2C[C@@H](O)CN2C(=O)[C@H]([C@@H](C)O)NC1=O (stereo partly drawn) (X1-[Orn(4R-OH)]T[Hyp][hTyr(3R-OH)][X2][Pro(3S-OH)]; lactam 1-C)"
  IC50 (µM): 0.4
- COMPOUND: "CCC(C)CC(C)CCCCCCCCC(=O)N[C@H]1C[C@@H](O)[C@@H](O)NC(=O)[C@@H]2[C@@H](O)CCN2C(=O)[C@H]([C@H](O)CC[N+](C)(C)C)NC(=O)[C@H]([C@H](O)[C@@H](O)c2ccc(O)cc2)NC(=O)[C@@H]2C[C@@H](O)CN2C(=O)[C@H]([C@@H](C)O)NC1=O (stereo partly drawn) (X1-[Orn(4R-OH,5R-OH)]T[Hyp][hTyr(3S-OH,4S-OH)][X6][Pro(3S-OH)]; lactam 1-C)"
  IC50 (µM): 0.009
- COMPOUND: "CCC(C)CC(C)CCCCCCCCC(=O)N[C@H]1C[C@@H](O)[C@@H](O)NC(=O)[C@@H]2[C@@H](O)CCN2C(=O)[C@H]([C@H](O)CCN)NC(=O)[C@H]([C@H](O)[C@@H](O)c2ccc(O)cc2)NC(=O)[C@@H]2C[C@@H](O)CN2C(=O)[C@H]([C@@H](C)O)NC1=O (stereo partly drawn) (X1-[Orn(4R-OH,5R-OH)]T[Hyp][hTyr(3S-OH,4S-OH)][Orn(3R-OH)][Pro(3S-OH)]; lactam 1-C)"
  IC50 (µM): 0.01
